Target: Upc2 (UniProt Q12151)
Sequence: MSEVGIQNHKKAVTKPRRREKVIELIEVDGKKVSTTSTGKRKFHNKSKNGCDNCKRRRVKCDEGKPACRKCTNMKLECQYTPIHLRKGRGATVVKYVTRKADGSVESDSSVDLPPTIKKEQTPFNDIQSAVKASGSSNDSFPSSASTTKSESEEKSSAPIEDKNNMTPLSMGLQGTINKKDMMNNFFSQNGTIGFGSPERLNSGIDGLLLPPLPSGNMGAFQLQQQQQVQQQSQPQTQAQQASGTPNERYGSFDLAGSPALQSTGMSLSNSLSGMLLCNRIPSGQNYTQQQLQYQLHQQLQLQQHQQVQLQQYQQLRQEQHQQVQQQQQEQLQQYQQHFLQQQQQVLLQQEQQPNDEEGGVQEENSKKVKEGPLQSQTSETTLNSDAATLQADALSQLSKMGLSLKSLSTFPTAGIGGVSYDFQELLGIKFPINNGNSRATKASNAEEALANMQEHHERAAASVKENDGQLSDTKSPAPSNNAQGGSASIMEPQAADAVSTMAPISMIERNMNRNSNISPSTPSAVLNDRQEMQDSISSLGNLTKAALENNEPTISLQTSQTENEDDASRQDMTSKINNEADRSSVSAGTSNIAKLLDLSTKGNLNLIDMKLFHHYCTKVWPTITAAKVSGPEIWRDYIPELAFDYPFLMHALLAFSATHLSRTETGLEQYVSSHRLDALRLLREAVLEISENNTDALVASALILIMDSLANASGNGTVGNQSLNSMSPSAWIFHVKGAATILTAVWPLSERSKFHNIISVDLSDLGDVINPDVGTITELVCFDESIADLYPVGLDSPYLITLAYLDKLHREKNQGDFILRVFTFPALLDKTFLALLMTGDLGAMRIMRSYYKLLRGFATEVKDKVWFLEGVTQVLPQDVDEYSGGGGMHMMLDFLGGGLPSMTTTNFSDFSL
Assay: PBM E-score (8-mer binding enrichment) (E-score (-0.5 to 0.5)); higher = stronger / more preferred TF binding
Settings: protein concentration: 200 nM; construct: GST-full length
The full ranking holds about 33,000 sequences; the median of “E-score (-0.5 to 0.5)” is about -0.043, and the highest 2% start at about 0.37. Shown is part of a subset that was picked to be rich in the highest values.
Measured quantity: PBM E-score

INSERT INTO measurements (residues, value_observed) VALUES
  ('AGCGAGCT', 0.225),
  ('ACTAAGAA', -0.0494),
  ('GGTTGGGA', -0.0786),
  ('TCCGAGCA', 0.176),
  ('CTAACCGA', 0.37),
  ('GTCTCACA', -0.0791),
  ('CAGACTGA', -0.0971),
  ('CCGTACGG', 0.374),
  ('CACGAGCG', 0.17),
  ('AGAACAAA', 0.103),
  ('GTAGGAAC', 0.13),
  ('CCGTACTA', 0.282),
  ('AAATCTCC', -0.271),
  ('ATAACGAC', 0.159),
  ('AATAAACT', -0.0754),
  ('AGCTATGG', -0.158),
  ('ACCCGTCA', -0.119),
  ('CTCTTCCA', -0.0797),
  ('AGAACGAC', 0.391),
  ('CGAACGAG', 0.427),
  ('CATAAACC', -0.075),
  ('GTAACCGA', 0.322),
  ('AGTACAGC', -0.156),
  ('CATTTAGC', -0.0255),
  ('GCTCCTAC', 0.0461),
  ('AGAACGAA', 0.376),
  ('ACTTATCG', 0.00736),
  ('CGCTTACA', 0.178),
  ('GGTAGTTA', -0.14),
  ('CTAACCGC', 0.0621),
  ('TACGAGCA', 0.465),
  ('ATTTACGG', 0.297),
  ('AACGCGAA', 0.23),
  ('CATCGTAG', 0.295),
  ('CTGACGTA', 0.164),
  ('ACTTCACG', 0.0222),
  ('ACCGGCCC', 0.0253),
  ('AAGCGACT', 0.243),
  ('CTTTACGC', 0.332),
  ('CCGTACGA', 0.443),
  ('CGTTTAGC', 0.48),
  ('ATTTACGA', 0.45),
  ('AGTTTAGA', -0.00847),
  ('AACGGAAA', 0.216),
  ('TGCGAGCA', 0.21),
  ('AATAAACG', 0.429),
  ('AATAAACA', 0.0907),
  ('CTTTACGA', 0.471),
  ('GGTTGACA', -0.0866),
  ('TGAATGCA', -0.0537),
  ('GATCGTAA', 0.396),
  ('AACGAGCC', 0.449),
  ('CATCGTGA', 0.0225),
  ('ACTCTAGC', -0.12),
  ('GTTTACGA', 0.471),
  ('ATTTACGC', 0.154),
  ('ACAACGAG', 0.257),
  ('CTAACGAG', 0.343),
  ('CGTACAGA', 0.41),
  ('GGCTACTA', -0.0652),
  ('ACGTACGA', 0.431),
  ('ATGCGACG', 0.306),
  ('TCCTCAAA', -0.24),
  ('TGCTAGCA', -0.0249),
  ('CCCTATCA', -0.325),
  ('TGTAGGAA', -0.0273),
  ('CGCTTACC', 0.301),
  ('ATTACCGC', 0.0457),
  ('AAAGGTGT', 0.0174),
  ('CGAACGCG', 0.185),
  ('ACGTACGC', 0.254),
  ('ACAGCGGT', -0.15),
  ('GCGTACTA', 0.0874),
  ('CATTTCGA', 0.0247),
  ('AGTTTAGC', 0.00286),
  ('AATCGTAT', 0.44),
  ('GCGTACGA', 0.448),
  ('GTTTACTA', 0.224),
  ('GCTTAGCA', -0.00347),
  ('CCGTACGC', 0.308),
  ('CATCGTAA', 0.389),
  ('AATCGTAA', 0.368),
  ('CATCGTAC', 0.454),
  ('ACGTACGG', 0.354),
  ('CGCGAGAA', 0.0746),
  ('GTTTACAA', 0.164),
  ('CCCCATAC', 0.174),
  ('AGCTCGAT', -0.0109),
  ('GAGGGCGC', -0.0991),
  ('AGAACGTC', -0.066),
  ('CCCCAACG', -0.107);
